These data points were gathered from the supplement of paper PMC10307832.

Please respond with reported relative viability for every item in the list.
# Tested on: UMC-11
# METHOD_SUMMARY: relative viability (nuclei count vs DMSO), 5 days (fraction); higher = more cells survive
# EXPERIMENTAL_SETUP: first compound 2 µM
Write the number on its own, no unit after it.

Fill blank: measured relative viability of the compound COCC1(CO)C(=O)C2CCN1CC2 (stereo not drawn) [PRIMA-1MET] + C[C@@H](Oc1cc(-c2cnn(C3CCNCC3)c2)cnc1N)c1c(Cl)ccc(F)c1Cl [Crizotinib] (partner 1 µM) is ____. 0.607

Fill blank: measured relative viability of the compound COCC1(CO)C(=O)C2CCN1CC2 (stereo not drawn) [PRIMA-1MET] + C[C@]1(O)C[C@@H](c2nc(-c3ccc4ccc(-c5ccccc5)nc4c3)c3c(N)nccn32)C1 [Linsitinib] (partner 1 µM) is ____. 1.04

Fill blank: measured relative viability of the compound COCC1(CO)C(=O)C2CCN1CC2 (stereo not drawn) [PRIMA-1MET] + Nc1ncn([C@H]2C[C@H](O)[C@@H](CO)O2)c(=O)n1 [Decitabine] (partner 2 µM) is ____. 0.399

* * *

# Test system: EBC-1
# METHOD_SUMMARY: relative viability (nuclei count vs DMSO), 5 days (fraction); higher = more cells survive
# EXPERIMENTAL_SETUP: first compound 0.2 µM
Threshold 0.6. relative viability below it: T. relative viability at it or above: F.

Dear colleague, could you confirm whether relative viability of COCC1(CO)C(=O)C2CCN1CC2 (stereo not given) [PRIMA-1MET] + C[C@@H](Oc1cc(-c2cnn(C3CCNCC3)c2)cnc1N)c1c(Cl)ccc(F)c1Cl [Crizotinib] (partner 1 µM) falls below 0.6? Thanks. T

Dear colleague, could you confirm whether relative viability of COCC1(CO)C(=O)C2CCN1CC2 (stereo not given) [PRIMA-1MET] + Cc1nc(NC(=O)N2CCC[C@H]2C(N)=O)sc1-c1ccnc(C(C)(C)C(F)(F)F)c1 [Alpelisib] (partner 2 µM) falls below 0.6? Thanks. F

Dear colleague, could you confirm whether relative viability of COCC1(CO)C(=O)C2CCN1CC2 (stereo not given) [PRIMA-1MET] + C[C@]1(O)C[C@@H](c2nc(-c3ccc4ccc(-c5ccccc5)nc4c3)c3c(N)nccn32)C1 [Linsitinib] (partner 1 µM) falls below 0.6? Thanks. F

Dear colleague, could you confirm whether relative viability of COCC1(CO)C(=O)C2CCN1CC2 (stereo not given) [PRIMA-1MET] + CC(C)C[C@H](NC(=O)[C@H](Cc1ccccc1)NC(=O)c1cnccn1)B(O)O [Bortezomib] (partner 0.002 µM) falls below 0.6? Thanks. T

Dear colleague, could you confirm whether relative viability of COCC1(CO)C(=O)C2CCN1CC2 (stereo not given) [PRIMA-1MET] + O=C(c1cc(Cc2n[nH]c(=O)c3ccccc23)ccc1F)N1CCN(C(=O)C2CC2)CC1 [Olaparib] (partner 8 µM) falls below 0.6? Thanks. F

* * *

Please respond with reported relative viability for every item in the list.
# Tested on: NCI-H2405
# METHOD_SUMMARY: relative viability (nuclei count vs DMSO), 5 days (fraction); higher = more cells survive
# EXPERIMENTAL_SETUP: first compound 0.8 µM
Write the number on its own, no unit after it.

Fill blank: measured relative viability of the compound O=c1cc(-c2cccc3c2Sc2ccccc2S3)oc(N2CCOCC2)c1 + NC(=O)Nc1cc(-c2cccc(F)c2)sc1C(=O)N[C@H]1CCCNC1 [AZD7762] (partner 0.2 µM) is ____. 0.731

Fill blank: measured relative viability of the compound O=c1cc(-c2cccc3c2Sc2ccccc2S3)oc(N2CCOCC2)c1 + O=C(c1cc(Cc2n[nH]c(=O)c3ccccc23)ccc1F)N1CCN(C(=O)C2CC2)CC1 [Olaparib] (partner 8 µM) is ____. 0.791

Fill blank: measured relative viability of the compound COc1nc(C)cnc1NS(=O)(=O)c1cccnc1-c1ccc(-c2nnco2)cc1 [Zibotentan] + Cc1nc(NC(=O)N2CCC[C@H]2C(N)=O)sc1-c1ccnc(C(C)(C)C(F)(F)F)c1 [Alpelisib] (partner 2 µM) is ____. 0.745

* * *

# Tested on: NCI-H441
# METHOD_SUMMARY: relative viability (nuclei count vs DMSO), 5 days (fraction); higher = more cells survive
# EXPERIMENTAL_SETUP: first compound 2.53 µM
Threshold 0.6. relative viability below it: 1. relative viability at it or above: -1.

Dear colleague, could you confirm whether relative viability of COc1nc(C)cnc1NS(=O)(=O)c1cccnc1-c1ccc(-c2nnco2)cc1 [Zibotentan] + Cc1nc(Nc2ncc(C(=O)Nc3c(C)cccc3Cl)s2)cc(N2CCN(CCO)CC2)n1 [Dasatinib] (partner 0.075 µM) falls below 0.6? Thanks. -1

Dear colleague, could you confirm whether relative viability of COc1nc(C)cnc1NS(=O)(=O)c1cccnc1-c1ccc(-c2nnco2)cc1 [Zibotentan] + C[C@@H](Oc1cc(-c2cnn(C3CCNCC3)c2)cnc1N)c1c(Cl)ccc(F)c1Cl [Crizotinib] (partner 1 µM) falls below 0.6? Thanks. -1

Dear colleague, could you confirm whether relative viability of O=c1cc(-c2cccc3c2Sc2ccccc2S3)oc(N2CCOCC2)c1 + Cc1nc(NC(=O)N2CCC[C@H]2C(N)=O)sc1-c1ccnc(C(C)(C)C(F)(F)F)c1 [Alpelisib] (partner 2 µM) falls below 0.6? Thanks. 1

Dear colleague, could you confirm whether relative viability of O=c1cc(-c2cccc3c2Sc2ccccc2S3)oc(N2CCOCC2)c1 + Cc1nc(Nc2ncc(C(=O)Nc3c(C)cccc3Cl)s2)cc(N2CCN(CCO)CC2)n1 [Dasatinib] (partner 0.075 µM) falls below 0.6? Thanks. 1

Dear colleague, could you confirm whether relative viability of COc1nc(C)cnc1NS(=O)(=O)c1cccnc1-c1ccc(-c2nnco2)cc1 [Zibotentan] + Nc1nc2[nH]cc(CCc3ccc(C(=O)N[C@@H](CCC(=O)O)C(=O)O)cc3)c2c(=O)[nH]1 [Pemetrexed] (partner 0.2 µM) falls below 0.6? Thanks. 1

* * *

Please respond with reported relative viability for every item in the list.
# Tested on: PC-3 [JPC-3]
# METHOD_SUMMARY: relative viability (nuclei count vs DMSO), 5 days (fraction); higher = more cells survive
# EXPERIMENTAL_SETUP: first compound 0.01 µM
Write the number on its own, no unit after it.

relative viability of CCN(CC)CCCCNc1ncc2cc(-c3cc(OC)cc(OC)c3)c(NC(=O)NC(C)(C)C)nc2n1 + CC1(C)CCC(c2ccc(Cl)cc2)=C(CN2CCN(c3ccc(C(=O)NS(=O)(=O)c4ccc(N[C@H](CCN5CCOCC5)CSc5ccccc5)c(S(=O)(=O)C(F)(F)F)c4)cc3)CC2)C1 [Navitoclax] (partner 0.5 µM) on PC-3 [JPC-3]? 0.827

relative viability of O=c1cc(N2CCOCC2)oc2c(-c3cccc4c3sc3ccccc34)cccc12 + CC(=O)Nc1cccc(-n2c(=O)n(C3CC3)c(=O)c3c(Nc4ccc(I)cc4F)n(C)c(=O)c(C)c32)c1 [Trametinib] (partner 0.02 µM) on PC-3 [JPC-3]? 0.623

relative viability of O=c1cc(N2CCOCC2)oc2c(-c3cccc4c3sc3ccccc34)cccc12 + Nc1ncn([C@H]2C[C@H](O)[C@@H](CO)O2)c(=O)n1 [Decitabine] (partner 2 µM) on PC-3 [JPC-3]? 0.809

relative viability of CCN(CC)CCCCNc1ncc2cc(-c3cc(OC)cc(OC)c3)c(NC(=O)NC(C)(C)C)nc2n1 + Cc1nc(Nc2ncc(C(=O)Nc3c(C)cccc3Cl)s2)cc(N2CCN(CCO)CC2)n1 [Dasatinib] (partner 0.075 µM) on PC-3 [JPC-3]? 1.05

relative viability of O=c1cc(N2CCOCC2)oc2c(-c3cccc4c3sc3ccccc34)cccc12 + O=C(c1cc(Cc2n[nH]c(=O)c3ccccc23)ccc1F)N1CCN(C(=O)C2CC2)CC1 [Olaparib] (partner 8 µM) on PC-3 [JPC-3]? 1.07

relative viability of O=c1cc(N2CCOCC2)oc2c(-c3cccc4c3sc3ccccc34)cccc12 + Cc1nc(NC(=O)N2CCC[C@H]2C(N)=O)sc1-c1ccnc(C(C)(C)C(F)(F)F)c1 [Alpelisib] (partner 2 µM) on PC-3 [JPC-3]? 1.01

relative viability of CCN(CC)CCCCNc1ncc2cc(-c3cc(OC)cc(OC)c3)c(NC(=O)NC(C)(C)C)nc2n1 + C[C@@H](Oc1cc(-c2cnn(C3CCNCC3)c2)cnc1N)c1c(Cl)ccc(F)c1Cl [Crizotinib] (partner 1 µM) on PC-3 [JPC-3]? 1

* * *

# System: NCI-H1793
# METHOD_SUMMARY: relative viability (nuclei count vs DMSO), 5 days (fraction); higher = more cells survive
# EXPERIMENTAL_SETUP: first compound 20 µM
METRIC: relative viability

Fill blank: measured relative viability of the compound COCC1(CO)C(=O)C2CCN1CC2 (stereo not given) [PRIMA-1MET] + Nc1nc2[nH]cc(CCc3ccc(C(=O)N[C@@H](CCC(=O)O)C(=O)O)cc3)c2c(=O)[nH]1 [Pemetrexed] (partner 0.2 µM) is ____. 0.919

Fill blank: measured relative viability of the compound COCC1(CO)C(=O)C2CCN1CC2 (stereo not given) [PRIMA-1MET] + Cc1nc(NC(=O)N2CCC[C@H]2C(N)=O)sc1-c1ccnc(C(C)(C)C(F)(F)F)c1 [Alpelisib] (partner 2 µM) is ____. 0.707

Fill blank: measured relative viability of the compound COCC1(CO)C(=O)C2CCN1CC2 (stereo not given) [PRIMA-1MET] + CS(=O)(=O)CCNCc1ccc(-c2ccc3ncnc(Nc4ccc(OCc5cccc(F)c5)c(Cl)c4)c3c2)o1 [Lapatinib] (partner 2 µM) is ____. 0.646

Fill blank: measured relative viability of the compound COCC1(CO)C(=O)C2CCN1CC2 (stereo not given) [PRIMA-1MET] + CC(=O)Nc1cccc(-n2c(=O)n(C3CC3)c(=O)c3c(Nc4ccc(I)cc4F)n(C)c(=O)c(C)c32)c1 [Trametinib] (partner 0.02 µM) is ____. 0.517

Fill blank: measured relative viability of the compound COCC1(CO)C(=O)C2CCN1CC2 (stereo not given) [PRIMA-1MET] + CCNC(=O)c1noc(-c2cc(C(C)C)c(O)cc2O)c1-c1ccc(CN2CCOCC2)cc1 [Luminespib] (partner 0.01 µM) is ____. 0.159
